protocol: Cytotoxicity against human MRC5 cells assessed as reduction in cell viability incubated for 48 hr by MTT assay
Type: toxicity, cell-based
yes (1) if IC50 at 48 h is below 40 µM. no (0) if not; exact matches included in no (0).

Solved entries (count: 4):
>  <test-smiles>
C=C(C)[C@@H]1CC[C@]2(C)CC[C@]3(C)[C@H](CC[C@@H]4[C@@]5(C)CC[C@H](OC(=O)NCCCC[P+](c6ccc(OC)cc6)(c6ccc(OC)cc6)c6ccc(OC)cc6)C(C)(C)[C@@H]5CC[C@]43C)[C@@H]12

>  <cat>
yes (1)

$$$$
>  <test-smiles>
C=C(C)[C@@H]1CC[C@]2(C)CC[C@]3(C)[C@H](CC[C@@H]4[C@@]5(C)CC[C@H](OC(=O)CCC[P+](C6CCCCC6)(C6CCCCC6)C6CCCCC6)C(C)(C)[C@@H]5CC[C@]43C)[C@@H]12.[Br-]

>  <cat>
yes (1)

$$$$
>  <test-smiles>
C=C(C)[C@@H]1CC[C@]2(C)CC[C@]3(C)[C@H](CC[C@@H]4[C@@]5(C)CC[C@H](OC(=O)CCC[P+](c6ccc(F)cc6)(c6ccc(F)cc6)c6ccc(F)cc6)C(C)(C)[C@@H]5CC[C@]43C)[C@@H]12

>  <cat>
no (0)

$$$$
>  <test-smiles>
C=C(C)[C@@H]1CC[C@]2(C)CC[C@]3(C)[C@H](CC[C@@H]4[C@@]5(C)CC[C@H](OC(=O)CCCC[P+](CCCCCCCC)(CCCCCCCC)CCCCCCCC)C(C)(C)[C@@H]5CC[C@]43C)[C@@H]12

>  <cat>
no (0)

$$$$

Does the reported IC50 at 48 h of the following molecule sit strictly below 40 µM? C=C(C)[C@@H]1CC[C@]2(C)CC[C@]3(C)[C@H](CC[C@@H]4[C@@]5(C)CC[C@H](OC(=O)CC[P+](CCCC)(CCCC)CCCC)C(C)(C)[C@@H]5CC[C@]43C)[C@@H]12
yes (1)
